From: the Immune Epitope Database (IEDB)

- TARGET_OF_ASSAY: HLA-A*02:01
- ASSAY_TEXT: IEDB peptide-MHC binding, purified MHC/direct/fluorescence; filed as Kd, often an IC50 or EC50 that approximates it; bounds were set here for any values at or beyond the usual limits of such assays
- CONDITION_SET: source organism: Brucella abortus
VALUE_TYPE: pKd
Note: pKd values are expressed as the negative base-10 logarithm of concentration in M.

pKd for `KLYERNTAF` ?
6.54

---

- TARGET_OF_ASSAY: HLA-B*08:01
- ASSAY_TEXT: IEDB peptide-MHC binding, purified MHC/direct/fluorescence; filed as Kd, often an IC50 or EC50 that approximates it; bounds were set here for any values at or beyond the usual limits of such assays
- CONDITION_SET: source organism: Salmonella enterica
VALUE_TYPE: Kd

Kd for `RPQLGVGDV` ?
≥ 20 µM
